Items are presented alongside their recorded pIC50.
# system.under.test: full-length human RORγt (Homo sapiens (Human), UniProt P51449)
# Sequence (P51449 other isoform, or with tags, fused parts or gaps): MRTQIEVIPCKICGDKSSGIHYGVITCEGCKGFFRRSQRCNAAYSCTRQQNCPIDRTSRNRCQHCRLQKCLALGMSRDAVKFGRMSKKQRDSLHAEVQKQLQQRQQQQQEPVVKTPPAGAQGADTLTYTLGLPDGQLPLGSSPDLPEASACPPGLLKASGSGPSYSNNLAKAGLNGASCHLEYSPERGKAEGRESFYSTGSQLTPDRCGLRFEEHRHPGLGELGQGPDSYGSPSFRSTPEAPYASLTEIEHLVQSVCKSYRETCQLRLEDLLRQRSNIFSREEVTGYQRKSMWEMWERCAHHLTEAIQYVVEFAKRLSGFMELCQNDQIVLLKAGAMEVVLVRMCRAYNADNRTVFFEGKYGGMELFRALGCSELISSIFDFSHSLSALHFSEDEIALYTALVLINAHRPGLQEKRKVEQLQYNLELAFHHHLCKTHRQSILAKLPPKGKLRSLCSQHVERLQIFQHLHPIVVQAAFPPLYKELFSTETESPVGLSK
# assay.overview: RORγt (full-length human) reporter assay, Conditions B or C
# Format: cell-based
# reported.conditions: read-out: RORγt (FL) Reporter Assay B or C, IC50
pIC50: −log10 of the molar value.
reported.property: pIC50

[[record]]
smiles_str = "C[C@H](NC(=O)c1nc(C(=O)N2CC(F)(F)C[C@@H]2C)c(-c2cnc(NC(C)(C)C)cc2C(F)F)s1)C(C)(C)O"
observed_result = 7.51

[[record]]
smiles_str = "C[C@H]1CCCN1C(=O)c1nc(C(=O)N2CC[C@H](O)C2)sc1-c1cnc(NC(C)(C)C)cc1C(F)(F)F"
observed_result = 7.52

[[record]]
smiles_str = "C[C@H]1CCCN1C(=O)c1nc(C(=O)N2CC(CO)C2)sc1-c1cnc(NC(C)(C)C)cc1C(F)(F)F"
observed_result = 7.62

[[record]]
smiles_str = "C[C@H](Nc1cc(C(F)F)c(-c2sc(C(=O)NC3CCOCC3)nc2C(=O)N2CCC[C@@H]2C)cn1)C(F)(F)F"
observed_result = 7.47

[[record]]
smiles_str = "C[C@H](Nc1cc(C(F)F)c(-c2sc(C(=O)N[C@H]3CC[C@H](O)C3)nc2C(=O)N2CC(F)(F)C[C@@H]2C)cn1)C(F)(F)F"
observed_result = 7.19

[[record]]
smiles_str = "C[C@H]1CCCN1C(=O)c1nc(C(=O)N[C@H]2C[C@H](O)C2)sc1-c1cnc(N[C@@H](C2CC2)C(F)(F)F)cc1C(F)F"
observed_result = 7.44


* * *

# system.under.test: full-length human RORγt (Homo sapiens (Human), UniProt P51449)
# assay.overview: RORγt (full-length human) reporter assay, Conditions B or C
# Format: cell-based
# reported.conditions: at 3 μM compound concentration; read-out: RORγt (FL) Reporter Assay B or C, % inhibition
# Text: RORγt (Full-Length Human) Reporter Assay: Cells used in this assay were transiently co-transfected with three different plasmids, one expressing the GAL4-DNA binding domain (DBD)-RORγt fusion protein under control of a CMV promoter (NH2-Gal4-DBD:RORC-COOH in pCMV-BD, Stratagene #211342), and two reporter plasmids—the firefly luciferase reporter under control of a GAL4 promoter (pFR-Luc 2×GAL4) and Renilla luciferase reporter under control of CMV promoter (pRL-CMV, Promega # E2261). […]
reported.property: inhibition at 3 µM (%)

[[record]]
compound = "CC(C)[C@@H](C)Nc1cc(C(F)F)c(-c2sc(C(=O)NCC(C)(C)O)nc2C(=O)N2CCC[C@@H]2C)cn1"
system_under_test = "full-length human RORγt (Homo sapiens (Human), UniProt P51449)"
observed_result = 110

[[record]]
compound = "C[C@H]1CCCN1C(=O)c1nc(C(=O)NC(C)(C)C(C)(C)O)sc1-c1cnc(NC(C)(C)C)cc1C(F)(F)F"
system_under_test = "full-length human RORγt (Homo sapiens (Human), UniProt P51449)"
observed_result = 103

[[record]]
compound = "C[C@H](CO)NC(=O)c1nc(C(=O)N2C3CCC2CC3)c(-c2cnc(NC(C)(C)C)cc2C(F)F)s1"
system_under_test = "full-length human RORγt (Homo sapiens (Human), UniProt P51449)"
observed_result = 113

[[record]]
compound = "CC[C@H](Nc1cc(C(F)F)c(-c2sc(C(=O)NC3CCC3O)nc2C(=O)N2CCC[C@@H]2C)cn1)C(F)(F)F (stereo partly shown)"
system_under_test = "full-length human RORγt (Homo sapiens (Human), UniProt P51449)"
observed_result = 105

